# Tested on: R275C/beta2Delta
# Assay Notes: modulators of BK channel variants, profiling panel, selectivity assay, cell-based, U2OS BacMam, thallium flux, beta subunits (AID 1259406);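 also: initial slope of Thallos dye fluorescence rise after thallium is added; log ratio against the mean of 0.3% DMSO vehicle wells on the same plate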
# Measurement Context: at 30 µM
So I've got a bunch of molecules here, and I need their log fold change Tl+ flux values.
Respond using a number only.

Record CCCSc1ccc2nc(NC(=O)OC)[nH]c2c1 ; system R275C/beta2Delta; log fold change Tl+ flux = 0.0234

Record CN(C)CCCN1c2ccccc2CCc2ccccc21 ; system R275C/beta2Delta; log fold change Tl+ flux = 0.158

Record CC(=O)OCC(=O)[C@@]1(O)CC[C@H]2[C@@H]3CCC4=CC(=O)C=C[C@]4(C)[C@H]3[C@@H](O)C[C@@]21C ; system R275C/beta2Delta; log fold change Tl+ flux = 0.0146

Record CCC1(c2ccccc2)C(=O)NCNC1=O ; system R275C/beta2Delta; log fold change Tl+ flux = -0.0215

Record CCOC(=O)C1=C(C)NC(C)=C(C(=O)OC)C1c1cccc([N+](=O)[O-])c1 (stereo unspecified) ; system R275C/beta2Delta; log fold change Tl+ flux = -0.0485

Record Cc1ccc(C)c(OCCCC(C)(C)C(=O)O)c1 ; system R275C/beta2Delta; log fold change Tl+ flux = 0.0312

Record CC1(C)O[C@@H]2C[C@H]3[C@@H]4C[C@H](F)C5=CC(=O)C=C[C@]5(C)[C@H]4[C@@H](O)C[C@]3(C)[C@]2(C(=O)CO)O1 ; system R275C/beta2Delta; log fold change Tl+ flux = -0.0208

Record CN[C@@H]1[C@H](O)[C@H](NC)[C@H]2O[C@@]3(O)C(=O)C[C@@H](C)O[C@H]3O[C@@H]2[C@H]1O ; system R275C/beta2Delta; log fold change Tl+ flux = -0.00159

Record CNCCCC12CCC(c3ccccc31)c1ccccc12 ; system R275C/beta2Delta; log fold change Tl+ flux = 0.217

Record Cc1ncc([N+](=O)[O-])n1CC(C)O (stereo unspecified) ; system R275C/beta2Delta; log fold change Tl+ flux = -0.0048

Record Cc1cccc(CN2CCN(C(c3ccccc3)c3ccc(Cl)cc3)CC2)c1 (stereo unspecified) ; system R275C/beta2Delta; log fold change Tl+ flux = 0.0052

Record C[C@]12C=CC(=O)C=C1CC[C@@H]1[C@@H]2C(=O)C[C@@]2(C)[C@H]1CC[C@]2(O)C(=O)CO ; system R275C/beta2Delta; log fold change Tl+ flux = 0.028

Record CCN(CC)C(=S)SSC(=S)N(CC)CC ; system R275C/beta2Delta; log fold change Tl+ flux = 0.0247

Record CO[C@@]1(NC(=O)Cc2cccs2)C(=O)N2C(C(=O)O)=C(COC(N)=O)CS[C@@H]21 ; system R275C/beta2Delta; log fold change Tl+ flux = -0.0512

Record CC[C@H](C)C(=O)O[C@H]1C[C@@H](C)C=C2C=C[C@H](C)[C@H](CC[C@@H]3C[C@@H](O)CC(=O)O3)[C@H]21 ; system R275C/beta2Delta; log fold change Tl+ flux = 0.0172

Record CCCNC(C)C(=O)Nc1ccccc1C (stereo unspecified) ; system R275C/beta2Delta; log fold change Tl+ flux = 0.0403

Record c1ccc2c(c1)CCCC2C1=NCCN1 (stereo unspecified) ; system R275C/beta2Delta; log fold change Tl+ flux = -0.0361

Record Cc1ccc(O)c([C@H](CCN(C(C)C)C(C)C)c2ccccc2)c1 ; system R275C/beta2Delta; log fold change Tl+ flux = 0.0798

Record c1ccc(CC2=NCCN2)cc1 ; system R275C/beta2Delta; log fold change Tl+ flux = -0.00877

Record C#C[C@]1(O)CC[C@H]2[C@@H]3CCC4=CC(=O)CC[C@@H]4[C@H]3CC[C@@]21CC ; system R275C/beta2Delta; log fold change Tl+ flux = -0.0278

Record NCc1ccc(S(N)(=O)=O)cc1 ; system R275C/beta2Delta; log fold change Tl+ flux = 0.176

Record CC1=C(/C=C/C(C)=C/C=C/C(C)=C/C(=O)O)C(C)(C)CCC1 ; system R275C/beta2Delta; log fold change Tl+ flux = 0.0707

Record O=C(O)c1cc(=O)c2c(OCC(O)COc3cccc4oc(C(=O)O)cc(=O)c34)cccc2o1 ; system R275C/beta2Delta; log fold change Tl+ flux = -0.0325

Record NCC(=O)CCC(=O)O ; system R275C/beta2Delta; log fold change Tl+ flux = -0.0499

Record Cn1cnc([N+](=O)[O-])c1Sc1ncnc2nc[nH]c12 ; system R275C/beta2Delta; log fold change Tl+ flux = -0.053

Record Cc1cccc(Nc2ccccc2C(=O)O)c1C ; system R275C/beta2Delta; log fold change Tl+ flux = 0.117
